The molecules listed here are annotated with their selectivity ratio.
Experiment: Selectivity index, ratio of IC50 for Vero cells to IC50 for Trypanosoma cruzi anexic amastigote
Assay type: toxicity, cell-based
Conditions: monkey, Vero cells versus Trypanosoma cruzi axenic amastigotes; read-out: Ratio IC50
When you answer, write just the number.

- Cl.c1ccc(Cn2nc3cc2CNCCNCCNCc2cc(n(Cc4ccccc4)n2)CNCCNCCNC3)cc1: 19.5
- CCCCCCCCN1CCNCc2cc([nH]n2)CNCCN(CCCCCCCC)CCNCc2cc(n[nH]2)CNCC1: 1
- Cl.Cn1nc2cc1CNCCNCCNCc1cc(n(C)n1)CNCCNCCNC2: 20.3

Then there is this molecule:
Per the records, this molecule ( Cl.c1c2n[nH]c1CNCCN1CCNCc3cc(n[nH]3)CNCCN(CCNC2)CCNCc2cc([nH]n2)CNCC1 ) has selectivity ratio equal to 20.7

Origin of values: ChEMBL document CHEMBL2069181
